target-desc: T1, B-cat-Halo (UniProt P35222 1-781)
T1 sequence (looked up): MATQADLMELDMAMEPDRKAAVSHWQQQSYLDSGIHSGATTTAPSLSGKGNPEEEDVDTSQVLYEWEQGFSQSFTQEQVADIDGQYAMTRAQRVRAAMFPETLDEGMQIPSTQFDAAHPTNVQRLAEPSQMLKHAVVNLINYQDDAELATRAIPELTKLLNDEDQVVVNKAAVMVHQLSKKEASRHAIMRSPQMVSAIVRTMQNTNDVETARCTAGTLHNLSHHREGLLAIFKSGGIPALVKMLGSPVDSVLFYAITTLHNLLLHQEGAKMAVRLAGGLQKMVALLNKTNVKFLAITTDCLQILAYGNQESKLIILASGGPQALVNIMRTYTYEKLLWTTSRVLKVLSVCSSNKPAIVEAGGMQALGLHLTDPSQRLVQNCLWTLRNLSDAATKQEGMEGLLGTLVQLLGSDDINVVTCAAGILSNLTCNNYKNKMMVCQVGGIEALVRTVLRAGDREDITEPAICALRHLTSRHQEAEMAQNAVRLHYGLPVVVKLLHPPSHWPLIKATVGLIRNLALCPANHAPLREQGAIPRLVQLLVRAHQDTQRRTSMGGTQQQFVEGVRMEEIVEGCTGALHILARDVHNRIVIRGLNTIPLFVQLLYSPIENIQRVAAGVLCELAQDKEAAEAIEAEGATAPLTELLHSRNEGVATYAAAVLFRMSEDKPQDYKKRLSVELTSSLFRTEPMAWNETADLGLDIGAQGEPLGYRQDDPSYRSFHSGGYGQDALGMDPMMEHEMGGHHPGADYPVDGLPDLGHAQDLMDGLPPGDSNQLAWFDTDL
experiment-summary: cell-based or functional assay
Starred links: 1 amine or outer side, 2 acyl side, 3 side chain; linkers in the order of their positions; H or OH if unused. Positions of bridges follow the written chain, without caps; N, C: chain ends. Non-standard residues stand in square brackets, D forms with d. Primed or numbered codes have the meaning given here. PyrS2″ = (S)-3-amino-1-((pent-4-en-1-yloxy)carbonyl)pyrrolidine-3-carboxylic acid (stapling residue), C=CCCCOC(=O)N1CC[C@@](N[*:1])(C(=O)[*:2])C1; B5(24) = 2-amino-2-(pent-4-en-1-yl)hept-6-enoic acid, 2,2-bis(4-pentenyl)glycine (stitching residue), C=CCCCC(CCCC=C)(N[*:1])C(=O)[*:2]; B5(3) = 2,2-bis(4-pentenyl)glycine (stitching residue), C=CCCCC(CCCC=C)(N[*:1])C(=O)[*:2]; Phe(3-CF3) = N[C@@H](Cc1cccc(C(F)(F)F)c1)C(=O)O; Phe(3-OMe) = COc1cccc(C[C@H](N)C(=O)O)c1; Phe(2-Cl) = N[C@@H](Cc1ccccc1Cl)C(=O)O; Bta = N[C@@H](Cc1csc2ccccc12)C(=O)O; Lys(iPr) = CC(C)NCCCC[C@H](N)C(=O)O; αAllylPro = C=CC[C@@]1(C(=O)O)CCCN1; tBuAla = CC(C)(C)C[C@H](N)C(=O)O; Cha = N[C@@H](CC1CCCCC1)C(=O)O; hSer = N[C@@H](CCO)C(=O)O
Property: NanoBRET Abs IC50; scope: individual binders
measured-attribute: NanoBRET Abs IC50

[[record]]
binder = "Ac-[αAllylPro]D[Cha][B5(3)]DDAA[Phe(3-CF3)]S[PyrS2″]F[Bta]Q-NH2 (staple 1-4, 4-11) [I-1125]"
result = "> 20 µM"

[[record]]
binder = "Ac-[αAllylPro]D[tBuAla][B5(24)]DD[Lys(iPr)]AFN[PyrS2″][Phe(2-Cl)][Bta]Q-NH2 (staple 1-4, 4-11) [I-1131]"
result = "18.8 µM"

[[record]]
binder = "Ac-[αAllylPro]D[Cha][B5(24)]DDAAFL[PyrS2″][Phe(2-Cl)][Bta]T-NH2 (staple 1-4, 4-11) [I-1139]"
result = "18 µM"

[[record]]
binder = "Ac-[αAllylPro]D[Cha][B5(3)]DDAA[Phe(3-OMe)]S[PyrS2″]F[Bta]Q-NH2 (staple 1-4, 4-11) [I-1124]"
result = "> 20 µM"

[[record]]
binder = "Ac-[αAllylPro]D[Cha][B5(24)]DDAAFS[PyrS2″][Phe(2-Cl)][Bta]L-NH2 (staple 1-4, 4-11) [I-1138]"
result = "19.8 µM"

[[record]]
binder = "Ac-[αAllylPro]D[Cha][B5(24)]DDAAFS[PyrS2″][Phe(2-Cl)][Bta][hSer]-NH2 (staple 1-4, 4-11) [I-1137]"
result = "12 µM"

[[record]]
binder = "Ac-[αAllylPro]D[tBuAla][B5(24)]DDAAFN[PyrS2″][Phe(2-Cl)][Bta][Lys(iPr)]-NH2 (staple 1-4, 4-11) [I-1130]"
result = "7.6 µM"

[[record]]
binder = "Ac-[αAllylPro]D[Cha][B5(24)]DDAAFS[PyrS2″][Phe(2-Cl)][Bta][dT]-NH2 (staple 1-4, 4-11) [I-1136]"
result = "14.9 µM"

[[record]]
binder = "Ac-[αAllylPro]D[tBuAla][B5(24)]DDA[Lys(iPr)]FN[PyrS2″][Phe(2-Cl)][Bta]Q-NH2 (staple 1-4, 4-11) [I-1132]"
result = "> 20 µM"

